Source of measurements: the supplement of paper PMC9170038

- System: MS2 coat protein
- Assay notes: apparent KD of MS2 coat protein; designed switch direction (-1 OFF switch, 1 ON switch): -1; higher = weaker reporter binding
- Condition context: input ligand: FMN 200 uM
Attribute measured: apparent KD of MS2 coat protein

Worked examples follow.
Biosequence | apparent KD of MS2 coat protein
UUUUGUCGUGACAUGGGUGACAUGAGGAUCACCCAUGUUACAAGCUUGUUGCUCGUCUUAUAAUUAACCCAUGUCAU [LRO Sensor-off var1-18 mod of Stov1-13-A1 by Brourd] (Eterna round: R97, puzzle: Sensor, turn-off variant 1) | 44.7 nM
AGACUGCUGCGAGGAUAUACAUGAGGAUCACCCAUGUUUUCCUGUGAGGCAUAGCCUCACAGGAUGUAGAAGGCGCAGUAGUCA [Mat - Exclusion NG 2 - Mod of JL - D30] (Eterna round: R96, puzzle: Exclusion NG 2) | 13.8 nM

Batch lookup, apparent KD of MS2 coat protein per entry.
1. AUCGUGCAGCUUUGCUGUACGAGUACAUGAGGAUCACCCAUGUAGGAUAUGGUACGCUUUGCGUGCCAGAAGGACGUGCGUUAG [salish99_ExNG3_r04_003] (Eterna round: R96, puzzle: Exclusion NG 3)
2. GCCUCACUUGAGGAUCACCCAAGUCAGGAUAUCUACAAGCCGGCCAUACCGGCUUGCAAGAGAAGGGACUCUAA [Xemamaqu] (Eterna round: R97, puzzle: Exclusion 1)
3. UCAACCAGAGGAUAUGCGCAUAGAUCAGACUUUGUUUCUUAACAUGAGGAUCACCCAUGUAGAAGGCUGUAACC [Ex2 #77] (Eterna round: R97, puzzle: Exclusion 2)

Reply:
63.2 nM
178 nM
20.3 nM

* * *

- Tested on: MS2 coat protein
- Assay notes: apparent KD of MS2 coat protein; designed switch direction (-1 OFF switch, 1 ON switch): -1; higher = weaker reporter binding
- Condition context: Eterna round: R95; input ligand: microRNA oligo, concentration not stated
Please respond with reported apparent KD of MS2 coat protein for every item in the list.
Give bare numbers, in nM.

Worked examples follow.
Biosequence | apparent KD of MS2 coat protein / nM
AAAUAAUAGAUAAAAUAAAACAUGAGGAUCACCCAUGUAGGCUGAUGAGGGUGAAACAAGCUUUUUGCUCGUCUUAU (puzzle: Sensor v3, turn-off variant 1) | 560
CCUUUGUCAGGAUAUCGAAAAGGGAGGCCAAAGGCCUCCGGUGAGAAGGGACAUGAGGAUCACCCAUGUGAAAA [Soonbidibe] (puzzle: Exclusion 4) | 57.5

Query: Returns the measured apparent KD of MS2 coat protein for the input sequence. Input: UUCCAGACAGGAUAUCUAGUGAGCAACAUGAGGAUCACCCAUGUGACCAUCACCGCCCGCAGAGAAGGGUCAACAG [Inbilaus] (puzzle: Exclusion 5)
Reply: 41.1

* * *

- Tested on: K4 kissing-loop RNA reporter
- Assay notes: apparent KD of K4 kissing-loop reporter; higher = weaker reporter binding
- Condition context: Eterna round: R107; input ligand: FMN 200 uM
Attribute measured: apparent KD of K4 kissing-loop reporter
Lab note: write values as number then unit, every time.

Biosequence | apparent KD of K4 kissing-loop reporter
ACACUAUCGUCAUAGACGGUAGUGAACACACAGGAUAUGAGUGAUGUUAGAAGGGUGUAAGACUGUAUCGAAUAGAUACAGUCAA [FmnA 7 #K4BetweenAptamer #OpenEnded] | 400 nM
GCAAUUCUCAGUGAUGUUGAGUAAUCGGAAGGAGCGCGUGAAAACGCAGGUAGGUCGCCGAAACAUGAAGUAUCUUCGUGUUUGC [Arginine A K4 24] | 180 nM
GGUUGAAGUACCCGGAGUGAUGUUCCGGAUACCAGCAAACCAACUUGCCCUUGGCAGCCGUAUAGCGUCCGGUGGACCGAGCAUA [Soriesreve] | 98.5 nM
AGGUUUUGAUUAGGAUAUGCACUGAGGAGGAGAAUAUAGUGAUGUUAUAUAAGAGGAAGGAGUAGAGUAGAAGGGAUUGAGGUUU [SSFMNB.R] | 249 nM
UUGAGCCGGACUCAAGUCCGGCUCUGCGAGCGAGGACCGGUACGGCCGCCACUCGGUGCAGUGAUGUUGCAUGGCCGCAAGGCCG [#2 Exclusion - Tryptophan A Attempt #13 (HarryS)] | 413 nM

Batch lookup, apparent KD of K4 kissing-loop reporter per entry.
1. UUAUUGAGCGUUUGUGAGAAGGCGUUCUUCAAGGAUAUCGACGUAACGAGAAGGUGAUUCGUUCCGAGUGAUGUUCGGUACGGGC [theeternabot_sameState_KL_FMN_A_4]
2. AAUAAAAUCACGGCCGCCACUGAAUAAUUGGUAAGUAGUGAUGUUACUUUACUUUUCUUAUUUAACAGGACCGGGUGAAUAUUUA [JR_ExcTryptoB_Sub009]
3. UGGACGAAUAUCGAUAAGAUAUUCUGGGAUACCAGUGACGAAAGUCACCCUUGGCAGCUCAACUGCCAGUGAUGUUGGUAGUCCA [Astros-Elo-mod#3]
4. GGGUGGCAGACGGCCGCCACUCUUAGCAGCCAGUGAGUGAUGUUCGUGGCGGAGUGAUGUUCCUAGAGGACCGGGUUUGUUGUUC [Same State Tryptophan B GF 20]
5. ACUGGGUUGACGAAAGUCAACAAAUGAGAAGGAGCGCACGAAAGUGCAGGUAGGUCGCUCAUUCCAGUGAUGUUGGAUCACCAGA [#SwitchBubble 19 #K4Late]

Reply:
["222 nM", "104 nM", "238 nM", "413 nM", "531 nM"]

Query: Returns the measured apparent KD of K4 kissing-loop reporter for the input sequence. Input: UGUACAUGUCAGCGAGUGAUGUUCGACGAUACCAGACUCGAUAGAGUCCCUUGGCAGCGUAACGCAUGCCAAACUGGCAUGUACU [#SwitchBubble 9 #K4Early]
Reply: 789 nM

* * *

- Tested on: MS2 coat protein
- Assay notes: apparent KD of MS2 coat protein; designed switch direction (-1 OFF switch, 1 ON switch): -1; higher = weaker reporter binding
- Condition context: Eterna round: R95; input ligand: none
Decide by apparent KD of MS2 coat protein: equal to or exceeding 70 nM means MET, less means NOT MET.

Biosequence | Answer label
GGUUGGCGAGGAUAUACAUGAGGAUCACCCAUGUGAGAGAAAAACGUGAGGAAGAAAAGUAGAAGGCGCUGACG [salish99_ex3_r3_025] (puzzle: Exclusion 3) | NOT MET

Query: Please tell me: is the sequence CAUGCUUCGGCAUGUACAAGCUUUUUGCUCGUCUUAUUAACAUGAGGAUCACCCAUGUACAAGAGACCUCAUGUAUU [Sensor v3 - turn-off variant 2 - 11] (puzzle: Sensor v3, turn-off variant 2) at or over 70 nM in terms of apparent KD of MS2 coat protein?
Reply: MET

Query: Please tell me: is the sequence AGUACUAACACGAAAGUGUUAGUACAAUAAGCUAGUGGAACAUGAGGAUCACCCAUGUCCUCAUUAGCUCGUCUUGU [Mat - Sensor v3 - Turn-off var 2 - D39] (puzzle: Sensor v3, turn-off variant 2) at or over 70 nM in terms of apparent KD of MS2 coat protein?
Reply: NOT MET

Query: Please tell me: is the sequence UUUAAACUUACAAUCUUCGCUGGCAUGCUUGUGCCAGCUACAUGAGGAUCACCCAUGUUUUUUGCUCGUCUUAUUCU [Usre] (puzzle: Sensor v3, turn-off variant 2) at or over 70 nM in terms of apparent KD of MS2 coat protein?
Reply: NOT MET

Query: Please tell me: is the sequence GGGCUUCAAGUGAGGAUAUCUACGCAGUUGAAGCGAGAGAAGGCACAUGAGGAUCACCCAUGUAUAGAAGAAGA [Rausmausis] (puzzle: Brourd's mod of Exclusion 4) at or over 70 nM in terms of apparent KD of MS2 coat protein?
Reply: NOT MET

* * *

- System: K4 kissing-loop RNA reporter;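 further: bound reporter read as fluorescence of individual clusters on recovered sequencing chips by microscopy, with normalized cluster intensities fitted with a binding model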
- Assay notes: apparent KD of K4 kissing-loop reporter; higher = weaker reporter binding
- Condition context: Eterna round: R107; input ligand: none
Please respond with reported apparent KD of K4 kissing-loop reporter for every item in the list.
Answers are plain numbers, in µM.

Batch lookup, apparent KD of K4 kissing-loop reporter per entry.
1. AAACAUUGGUCUGAUACCAGCUGAUCGGAAACGAUCAUGCUGGAGUGAUGUUCCAGGAAAAGCCCUUGGCAGCAGACCGAUGAAA [MAT - Same State Theophlline B - Mod of Eli - D28]
2. UUGUGCAGCAAUCGAGUGAUGUUCGACGAUACCAGCCUCGAUAGAGGCCCUUGGCAGCGUAUCAUCACAUGCCAAGAGCUGCACU [#SwitchBubble 5]
3. UGUACCGAUUCAGGAUAUGUCGUCGAAAGACGAAAUGGAGUGAUGUUCCUUAAACUGCGAAAGCAGACAGAAGGGAAUUGGUACU [FmnBS 29 U9+A77]
4. AAAAUAAACCAGUGAUGUUGGUGUCUAGAUACCAGCGACGAAAGUCGCCCUUGGCAGCUAUGGACGUACAAAAUAAGUACGUCCU [MatMod 6 - Jieux - Same State - Theophylline A]
5. UGGACGAAUAUCGAUAAGAUAUUCUGGGAUACCAGUGACGAAAGUCACCCUUGGCAGCUCAACUGCCAGUGAUGUUGGUAGUCCA [Astros-Elo-mod#3]

Reply:
1: 0.0756; 2: 0.428; 3: 0.3; 4: 0.617; 5: 0.218
